Every entry's value here was drawn from patent US7919508B2.

This section presents compounds with their documented log10(Ki) values.
biological target: human dopamine D1 receptor (Homo sapiens); construct: A 1.4 Kb Hind III to Xho I fragment was subcloned into the vector pMMLV; expressed in transfected cells; host or cells: CHO cells, clone CHO-D1M#9 (plasmid pHD1MMLV), membranes; assay: [3H]-SCH-23390 binding to cloned human dopamine D1 receptors (CHO cell membranes); details: competitive binding, [3H]-SCH-23390, cloned human D1 in CHO membranes; read-out: D1 affinity Ki
Sequence (P21728 whole entry, the tested form may be a part): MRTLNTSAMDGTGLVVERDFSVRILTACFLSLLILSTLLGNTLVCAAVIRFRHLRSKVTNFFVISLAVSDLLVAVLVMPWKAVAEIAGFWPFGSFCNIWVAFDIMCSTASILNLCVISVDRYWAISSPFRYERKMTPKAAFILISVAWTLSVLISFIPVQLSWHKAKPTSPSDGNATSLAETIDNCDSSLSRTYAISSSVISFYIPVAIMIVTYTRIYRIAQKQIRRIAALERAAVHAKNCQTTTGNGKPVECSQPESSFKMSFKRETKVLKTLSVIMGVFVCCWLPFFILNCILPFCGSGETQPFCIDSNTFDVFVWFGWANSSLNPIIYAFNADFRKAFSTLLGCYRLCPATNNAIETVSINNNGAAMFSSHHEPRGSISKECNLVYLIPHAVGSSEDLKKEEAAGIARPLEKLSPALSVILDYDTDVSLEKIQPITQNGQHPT
Where a name gives a salt, the structure may show the parent alone.
Base-10 log of Ki, unit nM.

Memo: Cc1ccc2c(c1O)C[C@@H](C1CCN(C(=O)N3CCCC3)CC1)O[C@H]2CN [Example 135, hydrochloride] , reported log10(Ki): 1.79

Memo: Cc1ccc2c(c1O)C[C@@H](C1CCN(CCCC(c3ccc(F)cc3)c3ccc(F)cc3)CC1)O[C@H]2CN [Example 108, dihydrobromide] , reported log10(Ki): 2.04

Memo: Cc1ccc2c(c1O)C[C@@H](C1CCN(CCC(C)NC(=O)c3cccs3)CC1)O[C@H]2CN (some centres unmarked) [Example 25, dihydrochloride] , reported log10(Ki): 1.75

Memo: Cc1ccc2c(c1O)C[C@@H](C1CCN(C(=O)Nc3ccc(F)cc3)CC1)O[C@H]2CN [Example 128, hydrochloride] , reported log10(Ki): 2.03

Memo: Cc1ccc2c(c1O)C[C@@H](C1CCN(S(=O)(=O)c3ccc(Cl)cc3)CC1)O[C@H]2CN [Example 148, hydrochloride] , reported log10(Ki): 2.26

Memo: Cc1ccc2c(c1O)C[C@@H](C1CCN(Cc3ccc(C(F)(F)F)cc3)CC1)O[C@H]2CN [Example 74, dihydrochloride] , reported log10(Ki): 1.76

Memo: `Cc1ccc2c(c1O)C[C@@H](C1CCN(C(=O)Nc3cccc(O)c3)CC1)O[C@H]2CN` , reported log10(Ki): 1.32

Memo: `CCCN(C)C[C@@H]1O[C@H](C2CCN(Cc3ccccc3)CC2)Cc2c1ccc(C)c2O` , reported log10(Ki): 3.49

Memo: Cc1ccc2c(c1O)C[C@@H](C1CCN(CCNC(=O)c3ccccc3)CC1)O[C@H]2CN [Example 191, dihydrobromide] , reported log10(Ki): 2.44

Memo: CCCCCCCCS(=O)(=O)N1CCC([C@@H]2Cc3c(ccc(C)c3O)[C@H](CN)O2)CC1 [Example 156, hydrochloride] , reported log10(Ki): 2.14

Memo: Cc1ccc2c(c1O)C[C@@H](C1CCN(S(=O)(=O)CC(F)(F)F)CC1)O[C@H]2CN [Example 157, hydrochloride] , reported log10(Ki): 0.32

---

molecular target: D1 receptor (Homo sapiens); construct: expressed in transfected cells; host or cells: D1 transfected CHO cell line; assay: D1 Activation Adenylyl Cyclase Assay (cAMP FlashPlate, D1 transfected CHO cell line); type: cell-based; conditions: agonist activity at the D1 receptor, adenylate cyclase assay, D1 transfected CHO cell line; read-out: D1 EC50
Sequence (P21728 whole entry, the tested form may be a part): as above
Counter-ions that a name gives are not always drawn.
attribute.measured: EC50
Give me the value, and tack the unit on after it.

Would you please look over these solved cases?
[
  {
    "molecule": "Cc1ccc2c(c1O)C[C@@H](C1CCN(CCC(C)c3ccccc3)CC1)O[C@H]2CN (stereo partly shown) [Example 27, dihydrobromide]",
    "EC50": "280 nM"
  },
  {
    "molecule": "Cc1ccc2c(c1O)C[C@@H](C1CCN(CCC(C)c3noc4cc(F)ccc34)CC1)O[C@H]2CN (stereo partly shown) [Example 104, dihydrochloride]",
    "EC50": "116 nM"
  },
  {
    "molecule": "Cc1ccc2c(c1O)C[C@@H](C1CCN(Cc3ccc(Cl)c(Cl)c3)CC1)O[C@H]2CN [Example 60, dihydrochloride]",
    "EC50": "160 nM"
  }
]

Turning to the following molecule.
Query CCCCN(CCCC)C(=O)N1CCC([C@@H]2Cc3c(ccc(C)c3O)[C@H](CN)O2)CC1 [Example 139, hydrochloride] on D1 receptor (Homo sapiens); EC50 returned: 0.11 nM
